Data provenance is patent US10940139B2.

# system_name: KRas G12C mutant (Homo sapiens (Human), UniProt P01116, G12C)
# Sequence (P01116-2 other isoform, or with tags, fused parts or gaps G12C): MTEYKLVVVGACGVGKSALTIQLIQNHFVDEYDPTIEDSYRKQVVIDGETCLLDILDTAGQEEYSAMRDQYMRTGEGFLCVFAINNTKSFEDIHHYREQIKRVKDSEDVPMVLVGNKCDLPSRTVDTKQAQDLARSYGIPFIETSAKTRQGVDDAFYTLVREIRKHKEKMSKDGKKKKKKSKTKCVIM
# method_description: Ras GTP binding domain inhibition assay (labeled GTP)
# study_conditions: 20 μM compound; read-out: % Inhibition at 20 μM KRas G12C
property_name: inhibition at 20 µM

(Q) Field request: inhibition at 20 µM | item: Oc1nc(-c2ccccn2)nc2c(-c3cc(Cl)cc(Cl)c3)csc12 [drawing 2848]
(A) 25 to 50%

(Q) Field request: inhibition at 20 µM | item: O=C(c1csc2c(O)nc(-c3ccccn3)nc12)N1CCOC(c2ccccc2Cl)C1 (centres unmarked) [drawing 2769]
(A) 25 to 50%

(Q) Field request: inhibition at 20 µM | item: Oc1nc(-c2ccccn2)nc2c(-c3ccccn3)csc12 [drawing 2896]
(A) 25 to 50%

(Q) Field request: inhibition at 20 µM | item: Cn1nnc2ccc(-c3csc4c(O)nc(-c5ccccn5)nc34)cc21 [drawing 2861]
(A) 1 to 25%

(Q) Field request: inhibition at 20 µM | item: Oc1nc(-c2ccccn2)nc2sc3c(c12)CCNC3 [drawing 2851]
(A) 25 to 50%

----------
# Tested on: TNFα production in RAW 264.7 macrophage cell line
# method_description: Mouse TNF alpha quantification assay (LPS-stimulated macrophages, ELISA)
# Assay type: cell-based
# study_conditions: RAW264.7, RAW 264.7 murine leukemia virus transformed macrophage cell lines, LPS stimulation, read-out: TNF-α % Inhibition at 30 μM
Field: inhibition at 30 µM. Provide a value for each of the compounds that follow.

(Q) Field request: inhibition at 30 µM | item: COc1ccc(COC[C@H]2O[C@@H](c3csc4c(=O)[nH]c(-c5ccccn5)nc34)[C@H](O)[C@@H]2O)cc1 [drawing 2360]
(A) 26 to 50%

(Q) Field request: inhibition at 30 µM | item: CC(C)c1nn(C)cc1-c1csc2c(O)nc(-c3ccccn3)nc12 [drawing 2322]
(A) 1 to 25%

(Q) Field request: inhibition at 30 µM | item: COc1ccnc(-c2nc(O)c3c(C(F)(F)F)csc3n2)c1 [drawing 2226]
(A) 1 to 25%

(Q) Field request: inhibition at 30 µM | item: COCCCNc1nc(-c2nccn2C)nc2sc(-c3ccccc3)c(-c3ccccc3)c12 [drawing 2397]
(A) 76 to 100%

(Q) Field request: inhibition at 30 µM | item: CN(CC(=O)Nc1nnc(-c2ccccn2)[nH]1)S(C)(=O)=O [drawing 1959]
(A) 1 to 25%

(Q) Field request: inhibition at 30 µM | item: COCCNc1nc(-c2cn(C)cn2)nc2sc(-c3ccncc3)c(-c3ccccc3)c12 [drawing 2357]
(A) 1 to 25%

(Q) Field request: inhibition at 30 µM | item: N#Cc1ncn(-c2nc(-c3ccccn3)nc3sc(-c4ccccc4)cc23)n1 [drawing 2132]
(A) 76 to 100%

(Q) Field request: inhibition at 30 µM | item: N#Cc1ccc(N2CCN(C(=O)c3csc4c(O)nc(-c5ccccn5)nc34)CC2)cc1 [drawing 2182]
(A) 0%

(Q) Field request: inhibition at 30 µM | item: CC(Oc1ccc(C#N)cc1)C(=O)Nc1nnc(-c2ccccn2)[nH]1 (stereo not drawn) [drawing 1977]
(A) 1 to 25%

(Q) Field request: inhibition at 30 µM | item: CS(=O)(=O)CCCC(=O)N1CCCc2c(O)nc(-c3ccccn3)nc21 [drawing 2082]
(A) 0%

(Q) Field request: inhibition at 30 µM | item: Oc1nc(-c2ccccn2)nc2c(-c3cc(Cl)cc(Cl)c3)csc12 [drawing 2241]
(A) 1 to 25%

(Q) Field request: inhibition at 30 µM | item: CC1(O)CCN(C(=O)c2csc3c(O)nc(-c4ccccn4)nc23)CC1 [drawing 2110]
(A) 0%

(Q) Field request: inhibition at 30 µM | item: Cc1sc2nc(N)nc(O)c2c1C [drawing 2165]
(A) 1 to 25%

(Q) Field request: inhibition at 30 µM | item: Cc1c(Br)sc2c(O)nc(-c3ccccn3)nc12 [drawing 2312]
(A) 51 to 75%

(Q) Field request: inhibition at 30 µM | item: O=C(c1csc2c(O)nc(-c3ccccn3)nc12)N1CCC(c2cccnc2)CC1 [drawing 2109]
(A) 1 to 25%

(Q) Field request: inhibition at 30 µM | item: Cc1ccc(CN(Cc2ccco2)C(=O)c2oc3ccccc3c2C)cc1 [drawing 2049]
(A) 0%

(Q) Field request: inhibition at 30 µM | item: Oc1nc(-c2ccccn2)nc2c(-c3ccc(OC4CCOCC4)cc3)csc12 [drawing 2259]
(A) 0%

(Q) Field request: inhibition at 30 µM | item: O=C(CN1CCN(c2nc(-c3ccccn3)nc3scc(-c4ccccc4)c23)CC1)N1CCCC1 [drawing 2157]
(A) 1 to 25%
